tested on: Mus musculus; assay: Antidepressant activity in Kunming mouse assessed as decrease in immobility time at 100 mg/kg, ip measured for last 4 mins of 6 mins test after 30 mins post dose by forced swimming test relative to control; type: functional; set-up: scale not given: the % may be the effect or the level left; conditions: route intraperitoneal
For each of the compounds below, state its Activity.

Exercise: # lookup: Activity of Clc1ccc(Oc2nc3ccsc3c3nnnn23)cc1
Key: 35.63%

Exercise: Also check COc1ccc(Oc2nc3ccsc3c3nnnn23)cc1
Key: 46.18%

Exercise: Request: Nc1ccccc1Oc1nc2ccsc2c2nnnn12
Key: 22.8%

Exercise: Same again, this time with Cc1cccc(Oc2nc3ccsc3c3nnnn23)c1
Key: 39.04%

Exercise: Same question, Fc1ccccc1Oc1nc2ccsc2c2nnnn12 this time
Key: 9.33%

Exercise: Again, but for Cc1ccccc1Oc1nc2ccsc2c2nnnn12
Key: 36.44%

Exercise: Can you check COc1ccccc1Oc1nc2ccsc2c2nnnn12 next?
Key: 26.05%

Exercise: Fc1cccc(Oc2nc3ccsc3c3nnnn23)c1 ?
Key: 25.73%

Exercise: Entry Nc1cccc(Oc2nc3ccsc3c3nnnn23)c1 please
Key: 27.59%

Exercise: Repeat with COc1cccc(Oc2nc3ccsc3c3nnnn23)c1
Key: 37.41%

Exercise: Another compound to check: Fc1ccc(Oc2nc3ccsc3c3nnnn23)cc1
Key: 18.18%

Exercise: Please give the result for c1ccc2c(Oc3nc4ccsc4c4nnnn34)cccc2c1 too.
Key: 9.25%

Exercise: Entry to check: c1ccc(Oc2nc3ccsc3c3nnnn23)cc1
Key: 26.46%

Exercise: What about this compound? Clc1ccccc1Oc1nc2ccsc2c2nnnn12
Key: 40.17%

Exercise: Would you kindly repeat that for CNCCC(Oc1ccc(C(F)(F)F)cc1)c1ccccc1 (stereo unspecified) [FLUOXETINE] ?
Key: 58.09%

Exercise: Now consider Cc1ccc(Oc2nc3ccsc3c3nnnn23)cc1 and answer again.
Key: 36.6%

Exercise: Let us now turn to Clc1ccc(Oc2nc3ccsc3c3nnnn23)c(Cl)c1
Key: 51.62%

Exercise: What would you report for c1cnc2c(Oc3nc4ccsc4c4nnnn34)cccc2c1 ?
Key: 23.62%

Exercise: Param item: Clc1cccc(Oc2nc3ccsc3c3nnnn23)c1
Key: 15.42%

Exercise: Item: FC(F)(F)c1ccc(Oc2nc3ccsc3c3nnnn23)cc1
Key: 25.16%

Exercise: Request: Brc1ccc(Oc2nc3ccsc3c3nnnn23)cc1
Key: 10.06%
